- Tested on: DU-145 prostate
- EXPERIMENTAL_DETAILS: NCI tumour cell line growth inhibition, 384-well format; in the data active means GI50 below about 0.43 µM; inactive means the rest
Result category, one only: active, inactive

COMPOUND | ASSIGNED_LABEL
COc1cc(C(=O)N[C@@H]2CCCN(C)C2)ccc1Nc1ncc2c(n1)N(C1CCCC1)CC(C)(C)C(=O)N2C | active
N#CCC1CCN(c2nc(Nc3ccc(N4CCC(O)CC4)cc3)c3c(=O)[nH]ncc3n2)CC1 | inactive
Cc1cc(C)c(CNC(=O)c2cc(Cl)c3c(c2C)O[C@@](C)(C2CCC(N(C)C)CC2)O3)c(=O)[nH]1 (some centres undefined) | inactive

Please look at the following compound next.
Task: Which result was noted for this compound in the test: CC1(C)CCC(c2ccc(Cl)cc2)=C(CN2CCN(c3ccc(C(=O)NS(=O)(=O)c4ccc(N[C@H](CCN5CCOCC5)CSc5ccccc5)c(S(=O)(=O)C(F)(F)F)c4)cc3)CC2)C1
Result: inactive
